// data source = PubChem BioAssay (NCI)

experiment: NCI Yeast Anticancer Drug Screen. Data for the cln2 rad14 strain (AID 165); settings: S. cerevisiae cln2 rad14 strain, at 50.0 µM (retest, dose inferred, filed as 5.0)
Compounds without any hit were thinned out: in the full panel of roughly 79,000, 15% have a hit. Active and inactive are the calls of the source. No stated cut-off is given here; in the data, active means growth inhibition above about 70%; inactive means the rest.
Labels: active, inactive

• CC(NNC(=S)N1CCCC1)c1ccccn1 (configuration not stated) = active
• C=CCSc1nc2ccc(N3C(=O)C=CC3=O)cc2s1 = active
• CCOCCNCc1ccc(Cl)c(Cl)c1 = inactive
• Nc1ccc(Cl)c2cccnc12 = inactive
• O=C(CC(=O)c1ccncc1)c1ccccc1 = active
• CC(C)C[C@H](NC(=O)[C@H](Cc1ccccc1)NC(=O)c1cnccn1)B(O)O = active
• CCCNC(=O)C(=O)NNc1ccccc1 = active
